Values from patent US20250154198A1

Items are presented alongside their recorded IC50 (pSTAT3).
- targetEntity: T1, human IL-23R endogenously expressed on DB cells (CRL-2289) (human, UniProt Q5VWK5 24-629)
- T1 sequence (looked up): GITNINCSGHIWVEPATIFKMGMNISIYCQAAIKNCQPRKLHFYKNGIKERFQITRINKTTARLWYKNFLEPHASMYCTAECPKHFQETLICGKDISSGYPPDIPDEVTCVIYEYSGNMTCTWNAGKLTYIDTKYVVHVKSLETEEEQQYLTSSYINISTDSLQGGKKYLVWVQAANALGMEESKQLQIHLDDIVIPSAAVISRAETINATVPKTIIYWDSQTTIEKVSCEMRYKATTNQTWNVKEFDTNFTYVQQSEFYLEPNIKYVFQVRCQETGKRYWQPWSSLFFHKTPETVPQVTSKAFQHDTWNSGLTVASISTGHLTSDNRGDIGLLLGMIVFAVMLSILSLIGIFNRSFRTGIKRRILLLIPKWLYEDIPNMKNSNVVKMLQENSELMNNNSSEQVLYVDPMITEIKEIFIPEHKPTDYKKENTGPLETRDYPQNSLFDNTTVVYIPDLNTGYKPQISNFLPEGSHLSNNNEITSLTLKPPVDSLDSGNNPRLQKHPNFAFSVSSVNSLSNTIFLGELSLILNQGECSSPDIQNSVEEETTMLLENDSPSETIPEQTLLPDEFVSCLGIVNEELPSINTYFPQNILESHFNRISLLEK
- protocolText: cell-based or functional assay
*1 amine or outer side, *2 acyl side, *3 side chain or, on linkers, in order; H or OH if unused. Bridges are numbered along the chain shown (N, C = ends). Where no end group is shown, it is not given here. [ ]: non-standard residue; d: D form. 2Nal = N[C@@H](Cc1ccc2ccccc2c1)C(=O)O; AEF = NCCOc1ccc(C[C@H](N)C(=O)O)cc1; αMeL = CC(C)C[C@](C)(N)C(=O)O; CH2COCH2 = O=C(C[*:1])C[*:2]; Ahx = NCCCCCC(=O)O

{"binder": "DESSWQSWWLKR (HELM PEPTIDE1{D.E.S.S.W.Q.S.W.W.L.K.R.[am]}$PEPTIDE1,PEPTIDE1,2:R3-11:R3$$$V2.0; SMILES CC(C)C[C@@H]1NC(=O)[C@H](Cc2c[nH]c3ccccc23)NC(=O)[C@H](Cc2c[nH]c3ccccc23)NC(=O)[C@H](CO)NC(=O)[C@H](CCC(N)=O)NC(=O)[C@H](Cc2c[nH]c3ccccc23)NC(=O)[C@H](CO)NC(=O)[C@H](CO)NC(=O)[C@@H](NC(=O)[C@@H](N)CC(=O)O)CCC(=O)NCCCC[C@@H](C(=O)N[C@@H](CCCNC(=N)N)C(N)=O)NC1=O) [Ref 2]", "val": "> 1 µM"}

Asked: Would you kindly share the measured IC50 (pSTAT3) for [Ahx]SCWQC[AEF][2Nal][αMeL]E[dR]-NH2 (lactam (positions not given here); linker 3-6 via CH2COCH2; not fully specified (bridges); printed as [6-Aminohexanoyl](1c)*SC(2a)WQC(2a)[Y(2-aminoethoxy)][2-Nal][2-Me-Leu]E(1c)[{d}R]-[NH2]) [Compound 87] ?
Given back: 8.89 nM
